Cited source: patent US20120178815A1

Biological target: CYP2C19 (Homo sapiens, UniProt P33261)
Construct: purchased BD Biosciences (San Jose, Calif.)
Sequence (P33261 whole entry): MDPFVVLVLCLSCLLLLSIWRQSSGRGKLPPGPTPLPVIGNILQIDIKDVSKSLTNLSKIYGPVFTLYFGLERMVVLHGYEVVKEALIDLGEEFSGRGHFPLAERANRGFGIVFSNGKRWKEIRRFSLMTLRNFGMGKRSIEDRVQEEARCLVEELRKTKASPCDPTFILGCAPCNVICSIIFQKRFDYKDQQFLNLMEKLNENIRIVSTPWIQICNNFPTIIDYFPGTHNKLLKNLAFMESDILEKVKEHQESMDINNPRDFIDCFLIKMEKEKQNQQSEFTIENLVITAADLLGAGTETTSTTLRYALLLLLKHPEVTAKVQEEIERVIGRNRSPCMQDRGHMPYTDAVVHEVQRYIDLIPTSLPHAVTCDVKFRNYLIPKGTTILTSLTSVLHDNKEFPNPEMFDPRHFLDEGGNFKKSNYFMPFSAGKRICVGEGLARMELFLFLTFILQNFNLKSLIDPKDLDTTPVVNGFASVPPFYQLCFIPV
Test: CYP2C19 inhibition, DBF substrate
Assay type: in vitro ADME
Conditions: human, microsomes containing human recombinant CYP2C19, probe dibenzylfluorescein (DBF); 10 μM test compound; average of six replicate experiments; read-out: Inhibition of CYPD2C19, % inhib. at 10 μM
Description: CYP2C19 activity was measured using dibezylflourescein (DBF) as substrate. The source of enzyme was microsomes containing human recombinant CYP2C19 obtained from BD Biosciences (San Jose, Calif.). Conversion of DBF to fluorescein was measured using a PerkinElmer Fusion with a 485 nm excitation filter and a 535 nm emission filter.
REPORTED_METRIC: inhibition at 10 µM (%)
Write the value in % as a bare number.

What value of inhibition at 10 µM has been recorded for this entry: CNCC/C=C1\c2ccccc2C[C@@H](O)c2ccccc21 (stereo in doubt) [(−)-E-10-OH-NT] 24

What value of inhibition at 10 µM has been recorded for this entry: CNCC/C=C1\c2ccccc2C[C@H](O)c2ccccc21 (stereo in doubt) [(+)-E-10-OH-NT] 20

----------
Target: α1b adrenergic receptor (Homo sapiens, UniProt P35368)
Construct: expressed in transfected cells; host or cells: CHO cells (membranes)
Sequence (P35368 1-520): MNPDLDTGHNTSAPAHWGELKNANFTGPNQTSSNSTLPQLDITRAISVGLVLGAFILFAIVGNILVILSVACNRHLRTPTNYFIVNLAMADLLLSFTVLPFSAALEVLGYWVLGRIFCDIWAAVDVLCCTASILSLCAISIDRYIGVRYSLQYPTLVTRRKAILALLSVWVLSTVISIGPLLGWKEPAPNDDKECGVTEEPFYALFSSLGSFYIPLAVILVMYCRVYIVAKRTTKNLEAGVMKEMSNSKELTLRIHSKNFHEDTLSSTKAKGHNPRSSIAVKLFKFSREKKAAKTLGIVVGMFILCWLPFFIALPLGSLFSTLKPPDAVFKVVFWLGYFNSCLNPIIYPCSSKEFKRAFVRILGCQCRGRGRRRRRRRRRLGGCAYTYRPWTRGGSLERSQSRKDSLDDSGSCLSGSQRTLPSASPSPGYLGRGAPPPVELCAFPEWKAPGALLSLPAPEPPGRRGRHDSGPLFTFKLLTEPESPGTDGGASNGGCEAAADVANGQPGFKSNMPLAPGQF
Assay: α1b adrenergic receptor binding, [3H]prazocine
REPORTED_METRIC: pKi
Note: pKi values are expressed as the negative base-10 logarithm of concentration in M.

What value of pKi has been recorded for this entry: CNCCC=C1c2ccccc2CCc2ccccc21 [NT, nortriptyline, reference compound] 7.68

----------
Biological target: α1a adrenergic receptor (rat salivary gland membranes) (Rattus norvegicus)
Construct: tested using membranes prepared from rat salivary gland; from tissue; host or cells: rat salivary gland membranes
Sequence (P43140 whole entry): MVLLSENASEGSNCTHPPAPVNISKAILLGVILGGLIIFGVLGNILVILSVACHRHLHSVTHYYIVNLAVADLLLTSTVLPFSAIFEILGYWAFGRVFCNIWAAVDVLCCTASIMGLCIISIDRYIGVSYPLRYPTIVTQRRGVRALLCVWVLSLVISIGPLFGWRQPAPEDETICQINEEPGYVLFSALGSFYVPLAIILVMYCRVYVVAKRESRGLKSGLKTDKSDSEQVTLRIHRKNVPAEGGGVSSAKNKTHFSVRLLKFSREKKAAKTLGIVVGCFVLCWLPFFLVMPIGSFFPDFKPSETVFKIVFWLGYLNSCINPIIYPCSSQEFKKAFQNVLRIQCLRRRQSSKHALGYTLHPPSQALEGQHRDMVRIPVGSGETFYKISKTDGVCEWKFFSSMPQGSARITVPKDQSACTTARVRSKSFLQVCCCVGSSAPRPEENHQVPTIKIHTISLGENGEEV
Assay: α1a adrenergic receptor binding, [3H]prazocine
REPORTED_METRIC: Ki (nM)
Write the value in nM as a bare number.

What value of Ki has been recorded for this entry: CNCCC=C1c2ccccc2CCc2ccccc21 [NT, nortriptyline, reference compound] 60

----------
Molecular target: 5HT uptake, rat brain synaptosomes (Rattus norvegicus)
Construct: into rat brain synaptosomes
Sequence (P31652 whole entry): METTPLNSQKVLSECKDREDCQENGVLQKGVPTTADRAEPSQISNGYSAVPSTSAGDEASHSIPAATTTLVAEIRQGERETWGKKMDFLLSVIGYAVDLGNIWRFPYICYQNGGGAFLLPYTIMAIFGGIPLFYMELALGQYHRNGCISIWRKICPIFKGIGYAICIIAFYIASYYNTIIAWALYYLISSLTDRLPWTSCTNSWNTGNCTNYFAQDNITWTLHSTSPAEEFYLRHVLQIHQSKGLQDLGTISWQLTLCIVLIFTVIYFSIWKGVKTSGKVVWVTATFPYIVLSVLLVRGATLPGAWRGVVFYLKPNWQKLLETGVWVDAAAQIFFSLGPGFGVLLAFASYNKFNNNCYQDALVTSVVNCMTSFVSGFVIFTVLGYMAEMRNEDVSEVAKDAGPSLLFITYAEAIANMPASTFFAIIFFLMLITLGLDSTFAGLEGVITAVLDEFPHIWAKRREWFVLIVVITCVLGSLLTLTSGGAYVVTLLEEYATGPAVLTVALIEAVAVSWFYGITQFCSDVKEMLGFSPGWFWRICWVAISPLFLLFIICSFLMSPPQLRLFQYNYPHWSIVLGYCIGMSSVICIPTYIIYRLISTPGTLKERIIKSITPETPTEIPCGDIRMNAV
Experiment: Inhibition of [3H]-5HT uptake into synaptosomes
Conditions: read-out: Monoamine Uptake Inhibition, 5HT, IC50
REPORTED_METRIC: pIC50
Note: pIC50 values are expressed as the negative base-10 logarithm of concentration in M.

What value of pIC50 has been recorded for this entry: CNCC/C=C1\c2ccccc2C[C@@H](O)c2ccccc21 (stereo in doubt) [(−)-E-10-OH-NT] 5.36

What value of pIC50 has been recorded for this entry: CNCC/C=C1\c2ccccc2C[C@H](O)c2ccccc21 (stereo in doubt) [(+)-E-10-OH-NT] 6.07
